- Run Description: Pharmacokinetics of vorolanib after single and multiple dosing
- Assay type: in vivo, human
- Run Conditions: human, plasma, oral, 25 mg, single dose 25 mg, n = 8; arithmetic mean (%CV)
Reported Metric: half-life
Express the reported value numerically, then name its unit.

Give the measured half-life for Cc1[nH]c(/C=C2\C(=O)Nc3ccc(F)cc32)c(C)c1C(=O)N[C@H]1CCN(C(=O)N(C)C)C1
5.9 h

* * *

- Run Description: Pharmacokinetics of vorolanib after single and multiple dosing
- Assay type: in vivo, human
- Run Conditions: human, plasma, oral; multiple doses 75 mg daily, n = 8; arithmetic mean (%CV); read-out: Vz/F (apparent volume of distribution)
Reported Metric: Vd/F (L)
The reply should be a number in L, with the unit left off.

// fetch Vd/F given entry Cc1[nH]c(/C=C2\C(=O)Nc3ccc(F)cc32)c(C)c1C(=O)N[C@H]1CCN(C(=O)N(C)C)C1 [vorolanib, Vorolanib]
436

* * *

- Run Description: Pharmacokinetics of vorolanib after single and multiple dosing
- Format: in vivo, human
- Run Conditions: human, plasma, oral, 75 mg, multiple doses 75 mg daily, n = 8; arithmetic mean (%CV)
Reported Metric: half-life (h)
Dear colleague, please return just the value in h, with no unit written.

Using known records, supply half-life for Cc1[nH]c(/C=C2\C(=O)Nc3ccc(F)cc32)c(C)c1C(=O)N[C@H]1CCN(C(=O)N(C)C)C1
7.3

* * *

- Run Description: Pharmacokinetics of vorolanib after single and multiple dosing
- Assay type: in vivo, human
- Run Conditions: human, plasma, oral, single dosing, 25–75 mg cohorts, approximately
Reported Metric: half-life

Please give measured half-life of the following entry: Cc1[nH]c(/C=C2\C(=O)Nc3ccc(F)cc32)c(C)c1C(=O)N[C@H]1CCN(C(=O)N(C)C)C1
5.9 to 10.7 h

* * *

- Run Description: Pharmacokinetics of vorolanib after single and multiple dosing
- Format: in vivo, human
- Run Conditions: human, plasma, oral, 50 mg, single dose 50 mg, n = 8; median (range); read-out: Tmax
Reported Metric: Tmax (h)
# unit: h | format: bare number

Report Tmax for Cc1[nH]c(/C=C2\C(=O)Nc3ccc(F)cc32)c(C)c1C(=O)N[C@H]1CCN(C(=O)N(C)C)C1
6

* * *

- Run Description: Pharmacokinetics of vorolanib after single and multiple dosing
- Format: in vivo, human
- Run Conditions: human, plasma, oral; multiple doses 50 mg daily, n = 8; arithmetic mean (%CV); read-out: Vz/F (apparent volume of distribution)
Reported Metric: Vd/F (L)
Write the answer as a number in L, unit excluded.

Complete the entry with Vd/F for Cc1[nH]c(/C=C2\C(=O)Nc3ccc(F)cc32)c(C)c1C(=O)N[C@H]1CCN(C(=O)N(C)C)C1
180

* * *

- Run Description: Pharmacokinetics of vorolanib after single and multiple dosing
- Type: in vivo, human
- Run Conditions: human, plasma, oral; multiple doses 75 mg daily, n = 8; arithmetic mean (%CV)
Reported Metric: AUC (ng·h/mL)
Could you give me the number in ng·h/mL? Just the number is fine.

Give reported AUC value for Cc1[nH]c(/C=C2\C(=O)Nc3ccc(F)cc32)c(C)c1C(=O)N[C@H]1CCN(C(=O)N(C)C)C1
1950

* * *

- Run Description: Pharmacokinetics of vorolanib after single and multiple dosing
- Assay type: in vivo, human
- Run Conditions: human, plasma, oral, 75 mg, multiple doses 75 mg daily, n = 8; arithmetic mean (%CV); read-out: Cmax,ss
Reported Metric: Cmax (ng/mL)
Only the number, expressed in ng/mL, is required.

Given the molecule Cc1[nH]c(/C=C2\C(=O)Nc3ccc(F)cc32)c(C)c1C(=O)N[C@H]1CCN(C(=O)N(C)C)C1 , write its reported Cmax.
269
